- Target Under Test: CCKB receptor (Mus musculus, UniProt P56481)
- Construct: The cortex was dissected, weighed and homogenised in 40 ml ice-cold buffer; tissue Charles River (animals); host or cells: cerebral cortex of male CD1 mice, membranes
- Measurement Protocol: radioligand binding assay at the CCKB receptor in mouse cortical membranes ([125I]-CCK8S)
- Protocol Conditions: [125I]-CCK8S 200 pM, 150 min at 21±3° C., pH 7.2, read-out: pKi (Mouse cortex) (converted)
Readout Name: Ki (µM)

{"Compound": "COC(=O)CNC(=O)[C@@H]1CC(=O)c2ccccc2N(Cc2ccccc2)C(=O)[C@@H](CC23CC4CC(CC(C4)C2)C3)N1C(C)=O [Example 37]", "Target Under Test": "CCKB receptor (Mus musculus, UniProt P56481)", "Ki, µM": 1.58}
{"Compound": "CC(=O)N1[C@H](CC23CC4CC(CC(C4)C2)C3)C(=O)N(Cc2cccc(F)c2)c2ccccc2C(=O)C[C@H]1C(=O)NCC(=O)O [Example 60]", "Target Under Test": "CCKB receptor (Mus musculus, UniProt P56481)", "Ki, µM": 0.2}
{"Compound": "CC(=O)N1[C@H](CC23CC4CC(CC(C4)C2)C3)C(=O)N(Cc2ccccc2)c2ccccc2C(=O)C[C@H]1C(=O)NCC(=O)NS(C)(=O)=O [Example 41]", "Target Under Test": "CCKB receptor (Mus musculus, UniProt P56481)", "Ki, µM": 0.398}
{"Compound": "CC(=O)N1[C@H](CC23CC4CC(CC(C4)C2)C3)C(=O)N(Cc2ccccc2)c2ccc(F)cc2C(=O)C[C@H]1C(=O)NCC(=O)O (relative stereo) [Example 61]", "Target Under Test": "CCKB receptor (Mus musculus, UniProt P56481)", "Ki, µM": 0.398}
{"Compound": "CC1CCN(C(=O)Nc2ccc(Cl)c(Cl)c2)CC(=O)N(Cc2ccccc2)c2ccccc21 (stereo not shown) [Example 44]", "Target Under Test": "CCKB receptor (Mus musculus, UniProt P56481)", "Ki, µM": 3.16}

(a) CC(=O)N1[C@H](CC23CC4CC(CC(C4)C2)C3)C(=O)N(Cc2cccc(Cl)c2)c2ccccc2C(=O)C[C@H]1C(=O)NCC(=O)O [Example 62]
(b) Cc1cccc(NC(=O)N2CCC(C)c3ccccc3N(Cc3ccccc3)C(=O)C2)c1 (stereo not shown) [Example 10]
// which entry reports the smaller Ki, a or b ? Your choice should be expressed through its label.
a
(a: 0.398 µM, b: 2.51 µM)

###

- Target Under Test: CCKB receptor (Mus musculus)
- Construct: The cortex was dissected, weighed and homogenised in 40 ml ice-cold buffer; tissue Charles River (animals); host or cells: cerebral cortex of male CD1 mice, membranes
- Measurement Protocol: radioligand binding assay at the CCKB receptor in mouse cortical membranes ([125I]-CCK8S)
- Protocol Conditions: [125I]-CCK8S 200 pM, 150 min at 21±3° C., pH 7.2, read-out: pKi (Mouse cortex) (converted)
- Description: The compounds of the examples were tested for binding at the CCKB receptor in mouse cortical membranes by means of a radioligand binding assay. The procedure was as follows: The whole brains from male mice (CD1 22-25 g; Charles River) were removed and placed in ice-cold buffer (pH7.2@21±3° C.) of the following composition (mM); 10 HEPES, 130 NaCl, 4.7 KCl, 5 MgCl2, 1 EDTA and containing 0.25 g.1^-1 bacitracin. […]
Readout Name: Ki (nM)

Examples with their reported Ki follow.
{"Molecule": "Cc1cccc(NC(=O)N2CCC(O)c3ccccc3N(Cc3ccccc3)C(=O)C2)c1 (single isomer, unassigned; isomer 2)", "Ki / nM": 10000}
{"Molecule": "CC(=O)N1[C@H](CC23CC4CC(CC(C4)C2)C3)C(=O)N(Cc2ccccc2F)c2ccccc2C(=O)C[C@H]1C(=O)NCC(=O)NS(C)(=O)=O", "Ki / nM": 398}
{"Molecule": "COc1ccc(CN2C(=O)[C@@H](CC34CC5CC(CC(C5)C3)C4)N(C(C)=O)[C@H](C(=O)Nc3cc(C(=O)O)cc(C(=O)O)c3)CC(=O)c3ccccc32)cc1", "Ki / nM": 1580}

(a) CC(=O)N1[C@H](CC23CC4CC(CC(C4)C2)C3)C(=O)N(Cc2ccccc2)c2ccccc2C(=O)C[C@H]1C(=O)NCCC(=O)O
(b) Cc1cccc(NC(=O)N2CCC(=O)c3ccccc3NC(=O)C2)c1
// which entry reports the smaller Ki, a or b ? Your choice should be expressed through its label.
a
(a: 1000 nM, b: 10000 nM)

###

- Target Under Test: CCKA (Cavia porcellus, UniProt Q63931)
- Construct: The pancreatata were removed from male guinea-pigs; from tissue; host or cells: pancreas of male Dunkin Hartley guinea pigs, membranes
- Sequence (Q63931 whole entry): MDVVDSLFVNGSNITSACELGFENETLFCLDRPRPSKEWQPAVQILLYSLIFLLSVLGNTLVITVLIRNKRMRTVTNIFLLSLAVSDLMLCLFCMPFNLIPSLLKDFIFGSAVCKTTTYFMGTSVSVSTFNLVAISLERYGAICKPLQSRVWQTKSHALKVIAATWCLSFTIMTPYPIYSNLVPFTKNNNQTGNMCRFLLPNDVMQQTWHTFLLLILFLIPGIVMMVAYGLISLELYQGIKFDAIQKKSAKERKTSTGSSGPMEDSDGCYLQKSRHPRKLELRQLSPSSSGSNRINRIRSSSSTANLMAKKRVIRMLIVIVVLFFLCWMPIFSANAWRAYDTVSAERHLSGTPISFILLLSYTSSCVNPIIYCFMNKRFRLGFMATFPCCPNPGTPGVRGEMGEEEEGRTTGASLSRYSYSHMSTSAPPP
- Measurement Protocol: CCKA binding assay, guinea pig pancreas membranes ([125I]-CCK8(S))
- Protocol Conditions: [125I]-CCK8(S) 200 pM, 0.375 μM PD134,308, 150 min at 21±3° C., pH 7.2, read-out: pKi (Guinea pig pancreas) (converted)
Readout Name: Ki (µM)

(1) CC(=O)N1[C@H](CC23CC4CC(CC(C4)C2)C3)C(=O)N(Cc2ccccc2F)c2ccccc2C(=O)C[C@H]1C(=O)N[C@@H](C)C(=O)O [Example 64]
(2) Cc1cccc(NC(=O)N2CCC(=O)c3ccccc3NC(=O)C2)c1 [Example 5]
(3) CC(=O)N1[C@H](CC23CC4CC(CC(C4)C2)C3)C(=O)N(Cc2ccccc2F)c2ccccc2C(=O)C[C@H]1C(=O)NCC(=O)O [Example 59]
Output the entries ranked by Ki from maximum down to minimum. Please respond with the labels ordered as the question requires.
1, 3, 2

###

- Target Under Test: CCKB receptor (Mus musculus, UniProt P56481)
- Construct: The cortex was dissected, weighed and homogenised in 40 ml ice-cold buffer; tissue Charles River (animals); host or cells: cerebral cortex of male CD1 mice, membranes
- Measurement Protocol: radioligand binding assay at the CCKB receptor in mouse cortical membranes ([125I]-CCK8S)
- Protocol Conditions: [125I]-CCK8S 200 pM, 150 min at 21±3° C., pH 7.2, read-out: pKi (Mouse cortex) (converted)
Readout Name: Ki (nM)

{"Compound": "COc1cccc(CN2C(=O)[C@@H](CC34CC5CC(CC(C5)C3)C4)N(C(C)=O)[C@H](C(=O)O)CC(=O)c3ccccc32)c1 [Example 13]", "Quantity Unit": "nM", "Ki": 2510}
{"Compound": "CC(=O)N1[C@H](CC23CC4CC(CC(C4)C2)C3)C(=O)N(Cc2ccc(F)cc2)c2ccccc2C(=O)C[C@H]1C(=O)NCC(=O)O [Example 58]", "Quantity Unit": "nM", "Ki": 2000}
{"Compound": "CC(=O)N1[C@H](CC23CC4CC(CC(C4)C2)C3)C(=O)N(Cc2cccc(N)c2)c2ccccc2C(=O)C[C@H]1C(=O)O [Example 17]", "Quantity Unit": "nM", "Ki": 1260}
{"Compound": "O=C(OCc1ccccc1)c1cccc(NC(=O)N2CCC(=O)c3ccccc3N(Cc3ccccc3)C(=O)C2)c1 [Example 46]", "Quantity Unit": "nM", "Ki": 10000}

(a) CC(C)(C)OC(=O)CN1C(=O)CN(C(=O)Nc2ccc(Cl)c(Cl)c2)CCC(=O)c2ccccc21 [Example 2]
(b) Cc1cccc(NC(=O)N2CCC(=O)c3ccccc3N(Cc3ccccc3)C(=O)C2)c1 [Example 3]
// which entry reports the smaller Ki, a or b ? Your choice should be expressed through its label.
a
(a: 1260 nM, b: 7940 nM)

###

- Target Under Test: CCKB receptor (Mus musculus)
- Construct: The cortex was dissected, weighed and homogenised in 40 ml ice-cold buffer; tissue Charles River (animals); host or cells: cerebral cortex of male CD1 mice, membranes
- Sequence (P56481 1-453): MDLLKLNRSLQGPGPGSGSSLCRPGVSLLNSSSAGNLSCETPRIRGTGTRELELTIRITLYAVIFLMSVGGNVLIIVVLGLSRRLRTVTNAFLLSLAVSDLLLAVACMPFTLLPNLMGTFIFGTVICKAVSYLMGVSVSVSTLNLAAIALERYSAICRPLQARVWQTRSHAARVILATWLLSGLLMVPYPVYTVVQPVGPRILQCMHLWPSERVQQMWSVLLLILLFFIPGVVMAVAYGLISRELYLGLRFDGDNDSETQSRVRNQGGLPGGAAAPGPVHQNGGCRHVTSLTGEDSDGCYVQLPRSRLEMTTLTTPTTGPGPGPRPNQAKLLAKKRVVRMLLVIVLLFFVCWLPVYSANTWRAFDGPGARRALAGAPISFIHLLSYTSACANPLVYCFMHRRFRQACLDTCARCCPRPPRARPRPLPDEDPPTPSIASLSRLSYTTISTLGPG
- Measurement Protocol: radioligand binding assay at the CCKB receptor in mouse cortical membranes ([125I]-CCK8S)
- Protocol Conditions: [125I]-CCK8S 200 pM, 150 min at 21±3° C., pH 7.2, read-out: pKi (Mouse cortex) (converted)
- Protocol: The compounds of the examples were tested for binding at the CCKB receptor in mouse cortical membranes by means of a radioligand binding assay. The procedure was as follows: The whole brains from male mice (CD1 22-25 g; Charles River) were removed and placed in ice-cold buffer (pH7.2@21±3° C.) of the following composition (mM); 10 HEPES, 130 NaCl, 4.7 KCl, 5 MgCl2, 1 EDTA and containing 0.25 g.1^-1 bacitracin. […]
Readout Name: Ki (nM)

Examples with their reported Ki follow.
{"Molecule": "CC(=O)N1[C@H](CC23CC4CC(CC(C4)C2)C3)C(=O)N(Cc2ccccc2F)c2ccccc2C(=O)C[C@H]1C(=O)N[C@@H](C)C(=O)O", "Target Under Test": "CCKB receptor (Mus musculus)", "Ki [nM]": 158}
{"Molecule": "CC1CCN(C(=O)Nc2ccc3ccccc3c2)CC(=O)N(Cc2ccccc2)c2ccccc21 (centres unmarked)", "Target Under Test": "CCKB receptor (Mus musculus)", "Ki [nM]": 10000}
{"Molecule": "CC(=O)N1[C@@H](C(=O)NCC(=O)O)CC(=O)c2ccccc2N(Cc2ccccc2)C(=O)[C@@H]1CC12CC3CC(CC(C3)C1)C2", "Target Under Test": "CCKB receptor (Mus musculus)", "Ki [nM]": 3160}
{"Molecule": "CC(=O)N1[C@H](CC23CC4CC(CC(C4)C2)C3)C(=O)N(Cc2ccccc2)c2ccccc2C(=O)C[C@H]1C(=O)NCC(=O)O", "Target Under Test": "CCKB receptor (Mus musculus)", "Ki [nM]": 200}
{"Molecule": "COc1ccc(CN2C(=O)[C@@H](CC34CC5CC(CC(C5)C3)C4)N(C(C)=O)[C@H](C(=O)O)CC(=O)c3ccccc32)cc1", "Target Under Test": "CCKB receptor (Mus musculus)", "Ki [nM]": 2510}
{"Molecule": "COc1ccc2c(c1)C(=O)C[C@@H](C(=O)NCC(=O)O)N(C(C)=O)[C@H](CC13CC4CC(CC(C4)C1)C3)C(=O)N2Cc1ccccc1 (relative stereo)", "Target Under Test": "CCKB receptor (Mus musculus)", "Ki [nM]": 126}

(A) Cc1cccc(NC(=O)N2CCC(=O)c3ccccc3N(CC(=O)N3CCCC3)C(=O)C2)c1
(B) CC(=O)N1[C@H](CC23CC4CC(CC(C4)C2)C3)C(=O)N(Cc2cccc(C)c2)c2ccccc2C(=O)C[C@H]1C(=O)NCC(=O)O
Determine, for A and B , which has the greater value of Ki. Your choice should be expressed through its label.
A
(A: 10000 nM, B: 1000 nM)
